system_under_test: HLA-A*11:01
procedure_text: IEDB peptide-MHC binding, purified MHC/direct/fluorescence; filed as Kd, often an IC50 or EC50 that approximates it; bounds were set here for any values at or beyond the usual limits of such assays
condition_parameters: source organism: Camelpox virus M-96
readout_type: Kd

FENDIDEIL :: ≥ 20 µM

Kindly consider the entry below.
Which measured Kd value corresponds to EYKKFIATF ?
≥ 20 µM

====

Answer each item with its documented pKd.
system_under_test: HLA-A*02:01
procedure_text: IEDB peptide-MHC binding, purified MHC/direct/fluorescence; filed as Kd, often an IC50 or EC50 that approximates it; bounds were set here for any values at or beyond the usual limits of such assays
condition_parameters: source organism: Mycobacterium tuberculosis
pKd: −log10 of the molar value.

Solved entries:
VLAGIFAGV :: ≥ 9.00
LPAEVRAAF :: ≤ 4.70
QVFKGVVIR :: ≤ 4.70
SPRSRNRSF :: ≤ 4.70

// below: pKd requested for another sequence
Notebook entry, HLA-A*02:01 assay: pKd of APAKKAAPA = ?
≤ 4.70

====

system_under_test: HLA-A*26:01
procedure_text: IEDB peptide-MHC binding, purified MHC/direct/fluorescence; filed as Kd, often an IC50 or EC50 that approximates it; bounds were set here for any values at or beyond the usual limits of such assays
condition_parameters: source organism: Influenza A virus(A/swine/Shandong/fZC/2003(H9N2))
readout_type: Kd

Look up Kd: SSDDFALIV
≥ 20 µM

====

system_under_test: HLA-A*02:03
procedure_text: IEDB peptide-MHC binding, purified MHC/competitive/radioactivity; filed as Kd, often an IC50 or EC50 that approximates it; bounds were set here for any values at or beyond the usual limits of such assays
condition_parameters: source organism: Mammarenavirus guanaritoense
readout_type: Kd (nM)
Answers are plain numbers, in nM.

Lab note: need Kd with HLA-A*02:03 for entry AQPGLLSYV , please look it up.
5.53

====

system_under_test: HLA-B*48:01
procedure_text: IEDB peptide-MHC binding, purified MHC/direct/fluorescence; filed as Kd, often an IC50 or EC50 that approximates it; bounds were set here for any values at or beyond the usual limits of such assays
condition_parameters: source organism: Camelpox virus M-96
readout_type: Kd (nM)
Numbers only, in nM.

Tell me the measured Kd of FENDIDEIL , please.
1200

====

system_under_test: HLA-B*48:01
procedure_text: IEDB peptide-MHC binding, purified MHC/direct/fluorescence; filed as Kd, often an IC50 or EC50 that approximates it; bounds were set here for any values at or beyond the usual limits of such assays
condition_parameters: source organism: Mammarenavirus juninense
readout_type: Kd

Entry under review: DLKLVDVKL . Reported Kd?
≥ 20 µM

====

system_under_test: HLA-A*29:02
procedure_text: IEDB peptide-MHC binding, purified MHC/direct/fluorescence; filed as Kd, often an IC50 or EC50 that approximates it; bounds were set here for any values at or beyond the usual limits of such assays
condition_parameters: source organism: Reston ebolavirus - Reston
readout_type: Kd

So what does the record say about Kd for SKLRALLTL ?
≥ 20 µM

====

system_under_test: HLA-A*68:02
procedure_text: IEDB peptide-MHC binding, purified MHC/direct/fluorescence; filed as Kd, often an IC50 or EC50 that approximates it; bounds were set here for any values at or beyond the usual limits of such assays
condition_parameters: source organism: Zaire ebolavirus
readout_type: Kd

SKLRALLTL :: ≥ 20 µM

API: the following record is the query input.
Would you mind telling me what Kd value was observed for KLWTSISCA ?
≥ 20 µM

====

system_under_test: HLA-A*32:15
procedure_text: IEDB peptide-MHC binding, purified MHC/competitive/fluorescence; filed as Kd, often an IC50 or EC50 that approximates it; bounds were set here for any values at or beyond the usual limits of such assays
condition_parameters: source organism: Mycobacterium tuberculosis C
readout_type: pKd
Answers are plain numbers, as −log10 of the molar value.

Requested read-out: pKd. Entry: LPAEVRAAF
6.12

====

system_under_test: HLA-A*03:01
procedure_text: IEDB peptide-MHC binding, purified MHC/competitive/radioactivity; filed as Kd, often an IC50 or EC50 that approximates it; bounds were set here for any values at or beyond the usual limits of such assays
condition_parameters: source organism: Triticum aestivum
pKd: −log10 of the molar value.
readout_type: pKd

Consider the sequence shown here: VSFQQPQQQY What is its recorded pKd?
≤ 4.15

====

system_under_test: HLA-B*07:02
procedure_text: IEDB peptide-MHC binding, purified MHC/competitive/fluorescence; bounds were set here for any values at or beyond the usual limits of such assays
condition_parameters: source organism: Vaccinia virus Copenhagen
pIC50: −log10 of the molar value.
readout_type: pIC50

Need pIC50, item IVFYRSGTE
≤ 3.65

====

system_under_test: HLA-B*15:09
procedure_text: IEDB peptide-MHC binding, purified MHC/direct/fluorescence; filed as Kd, often an IC50 or EC50 that approximates it; bounds were set here for any values at or beyond the usual limits of such assays
condition_parameters: source organism: Orthomarburgvirus marburgense
pKd: −log10 of the molar value.
readout_type: pKd

Field request: pKd | item: GELRKAICL
≤ 4.70

====

system_under_test: HLA-A*01:01
procedure_text: IEDB peptide-MHC binding, purified MHC/competitive/radioactivity; filed as Kd, often an IC50 or EC50 that approximates it; bounds were set here for any values at or beyond the usual limits of such assays
condition_parameters: source organism: Mammarenavirus brazilense
readout_type: pKd
Numbers only, as −log10 of the molar value.

KTFFWFNEV :: 4.94

Alright, here's another sequence for you.
What pKd value was documented for this sequence, HSIKRNYPY ?
7.28

====

system_under_test: HLA-A*02:01
procedure_text: IEDB peptide-MHC binding, purified MHC/competitive/fluorescence; filed as Kd, often an IC50 or EC50 that approximates it; bounds were set here for any values at or beyond the usual limits of such assays
condition_parameters: source organism: Salmonella enterica subsp. enterica serovar Paratyphi A str. AKU_12601
pKd: −log10 of the molar value.
readout_type: pKd

Requested read-out: pKd. Entry: AMDTHLYFE
≤ 4.70

====

system_under_test: HLA-A*26:01
procedure_text: IEDB peptide-MHC binding, purified MHC/direct/fluorescence; filed as Kd, often an IC50 or EC50 that approximates it; bounds were set here for any values at or beyond the usual limits of such assays
condition_parameters: source organism: Lyssavirus rabies
pKd: −log10 of the molar value.
readout_type: pKd

Please look up its pKd: YLDNVGVHI
≤ 4.70

====

system_under_test: HLA-A*26:01
procedure_text: IEDB peptide-MHC binding, purified MHC/direct/fluorescence; filed as Kd, often an IC50 or EC50 that approximates it; bounds were set here for any values at or beyond the usual limits of such assays
condition_parameters: source organism: Influenza A virus (A/Memphis/1/1986(H3N2))
pKd: −log10 of the molar value.
readout_type: pKd

For NHDGIQAGV , what is its reported pKd?
≤ 4.70

====

system_under_test: HLA-B*58:01
procedure_text: IEDB peptide-MHC binding, purified MHC/direct/fluorescence; filed as Kd, often an IC50 or EC50 that approximates it; bounds were set here for any values at or beyond the usual limits of such assays
condition_parameters: source organism: Influenza A virus (A/swine/Italy/809/1989(H3N2))
pKd: −log10 of the molar value.
readout_type: pKd

Consider the sequence shown here: EEIRRIWRQ What is its recorded pKd?
≤ 4.70

====

system_under_test: HLA-B*08:01
procedure_text: IEDB peptide-MHC binding, purified MHC/direct/fluorescence; filed as Kd, often an IC50 or EC50 that approximates it; bounds were set here for any values at or beyond the usual limits of such assays
condition_parameters: source organism: Rickettsia prowazekii
Kindly state Kd for each of the entries shown.

QFAGGSFDF :: ≥ 20 µM

Proceeding to the next sequence to report its Kd.
Using the record for IYSAEFKNY , report its Kd.
≥ 20 µM

====

system_under_test: HLA-B*07:02
procedure_text: IEDB peptide-MHC binding, purified MHC/direct/fluorescence; filed as Kd, often an IC50 or EC50 that approximates it; bounds were set here for any values at or beyond the usual limits of such assays
condition_parameters: source organism: Yellow fever virus
pKd: −log10 of the molar value.
readout_type: pKd

What measured pKd goes with TKDTNDNNL ?
≤ 4.70

====

system_under_test: HLA-B*57:01
procedure_text: IEDB peptide-MHC binding, purified MHC/competitive/fluorescence; filed as Kd, often an IC50 or EC50 that approximates it; bounds were set here for any values at or beyond the usual limits of such assays
condition_parameters: source organism: Zaire ebolavirus
pKd: −log10 of the molar value.
readout_type: pKd

Which value of pKd has been reported for KLWTSISCA in the records?
≤ 4.70

====

Give Kd for every item shown.
system_under_test: HLA-B*15:03
procedure_text: IEDB peptide-MHC binding, purified MHC/competitive/radioactivity; filed as Kd, often an IC50 or EC50 that approximates it; bounds were set here for any values at or beyond the usual limits of such assays
condition_parameters: source organism: Vaccinia virus WR
Numbers only, in nM.

Below, each entry is followed by its recorded Kd result.
KTIYAVDSF :: 321
NMFNISFRF :: 18.5
GERYYFAYI :: 238
KPNSFTFSF :: 254

Batch lookup, Kd per entry.
1. TKFTDFQDF
2. FVYVPELSF
3. KMAADRGAF

1: 2.22; 2: 203; 3: 2.5

For each listed entry, give its Kd.
1. SGNRGSTSF
2. RGSWATSSF
3. ILHHHRNVF
4. YKVFTDISM

1. 25.2
2. 11.1
3. 1.33
4. 2.18

// input: 5 sequences below; output: Kd for each
1. FFKQTFGSL
2. SQQNSDSIF
3. TKTLDISSF
4. RSLIIVLLF
5. IMVSEHFSL

1: 1080; 2: 1.87; 3: 54.5; 4: 225; 5: 5.51
